Biological target: CSF-1R (Homo sapiens, UniProt P07333)
Sequence (P07333 20-972): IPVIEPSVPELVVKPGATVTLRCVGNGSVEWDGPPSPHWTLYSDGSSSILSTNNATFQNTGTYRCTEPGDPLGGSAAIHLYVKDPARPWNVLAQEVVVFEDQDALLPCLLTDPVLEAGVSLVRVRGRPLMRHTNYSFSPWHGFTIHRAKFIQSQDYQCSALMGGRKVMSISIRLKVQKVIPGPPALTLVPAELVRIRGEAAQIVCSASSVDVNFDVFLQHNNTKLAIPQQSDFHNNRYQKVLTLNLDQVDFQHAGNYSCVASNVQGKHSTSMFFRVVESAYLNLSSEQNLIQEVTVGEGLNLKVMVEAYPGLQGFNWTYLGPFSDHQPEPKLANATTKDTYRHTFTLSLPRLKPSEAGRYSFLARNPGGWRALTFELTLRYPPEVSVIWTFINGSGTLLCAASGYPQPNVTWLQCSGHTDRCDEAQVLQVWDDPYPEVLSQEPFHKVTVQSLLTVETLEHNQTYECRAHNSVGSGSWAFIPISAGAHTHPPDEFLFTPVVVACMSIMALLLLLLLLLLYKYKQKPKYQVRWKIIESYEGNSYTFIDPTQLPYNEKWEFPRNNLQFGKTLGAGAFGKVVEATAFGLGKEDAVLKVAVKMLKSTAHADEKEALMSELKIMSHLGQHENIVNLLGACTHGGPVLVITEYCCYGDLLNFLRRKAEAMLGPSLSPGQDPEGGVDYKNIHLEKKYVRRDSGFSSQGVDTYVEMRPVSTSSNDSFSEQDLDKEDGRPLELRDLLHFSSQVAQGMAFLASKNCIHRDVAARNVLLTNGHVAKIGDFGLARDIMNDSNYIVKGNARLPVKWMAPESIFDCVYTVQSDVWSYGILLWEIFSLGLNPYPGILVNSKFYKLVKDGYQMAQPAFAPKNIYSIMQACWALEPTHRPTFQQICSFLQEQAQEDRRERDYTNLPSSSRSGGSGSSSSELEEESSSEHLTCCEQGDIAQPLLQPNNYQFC
Assay: Peptide (non-phosphorylated) assay, fluorescence polarization competition immunoassay
Type: biochemical
Conditions: 0.7 nM CSF-1R, 308 μM SYEGNSYTFIDPTQ peptide, 1 mM ATP, 80 min; mean of at least three determinations; read-out: c-fms Peptide IC50
Method: The kinase reaction was initiated by adding 1 μL of 10 mM ATP in assay buffer. […] The plates were covered and incubated at room temperature for 80 min. […] The plates were covered, incubated for 30 min at room temperature, and the fluorescence polarization was read on an Analyst plate reader (Molecular Devices).
endpointLabel: pIC50
Numbers only, as −log10 of the molar value.

// solved cases for pIC50 follow
{"columns": ["compound", "endpointLabel", "recordedNumber"],
 "data": [
  ["CONC(=O)c1cn(-c2ccc3c(c2)CCC3)c2nc(Nc3cccc(OC4CN5CCC4CC5)c3)ncc2c1=O (centres unmarked) [Cpd 267]", "pIC50", 9.38],
  ["CCONC(=O)c1cn(-c2ccc(CC)cc2)c2nc(Nc3ccc(C4CCN(CC(F)(F)F)CC4)cc3)ncc2c1=O [Cpd 189]", "pIC50", 8.01],
  ["CONC(=O)c1cn(C2CCC(C)(C)CC2)c2nc(Nc3ccc(C4CCN(CCO)CC4)cc3)ncc2c1=O [Cpd 210]", "pIC50", 9.60],
  ["CCn1cnc2cc(Nc3ncc4c(=O)c(C(=O)NOC)cn(-c5ccc6c(c5)CCC6)c4n3)ccc21 [Cpd 301]", "pIC50", 9.05],
  ["CONC(=O)c1cn(C2CCCCC2)c2nc(Nc3ccc(C4CCN(C)CC4)cc3)ncc2c1=O [Cpd 140]", "pIC50", 8.32]
]}

Parameter requested: pIC50. Apply to each item below.
1. CCc1ccc(-n2cc(C(=O)NOC)c(=O)c3cnc(Nc4ccc(CCN5CC(F)C5)cc4)nc32)cc1 [Cpd 265]
2. CONC(=O)c1cn(-c2ccc3c(c2)CCC3)c2nc(Nc3ccccc3)ncc2c1=O [Cpd 300]
3. COCCc1ccc(Nc2ncc3c(=O)c(C(=O)NOC)cn(-c4ccc5c(c4)CCC5)c3n2)cc1 [Cpd 81]

Out:
9.24
8.82
8.52
